- assay.system: Metabotropic glutamate receptor 5 (Homo sapiens)
- Sequence (P41594 whole entry): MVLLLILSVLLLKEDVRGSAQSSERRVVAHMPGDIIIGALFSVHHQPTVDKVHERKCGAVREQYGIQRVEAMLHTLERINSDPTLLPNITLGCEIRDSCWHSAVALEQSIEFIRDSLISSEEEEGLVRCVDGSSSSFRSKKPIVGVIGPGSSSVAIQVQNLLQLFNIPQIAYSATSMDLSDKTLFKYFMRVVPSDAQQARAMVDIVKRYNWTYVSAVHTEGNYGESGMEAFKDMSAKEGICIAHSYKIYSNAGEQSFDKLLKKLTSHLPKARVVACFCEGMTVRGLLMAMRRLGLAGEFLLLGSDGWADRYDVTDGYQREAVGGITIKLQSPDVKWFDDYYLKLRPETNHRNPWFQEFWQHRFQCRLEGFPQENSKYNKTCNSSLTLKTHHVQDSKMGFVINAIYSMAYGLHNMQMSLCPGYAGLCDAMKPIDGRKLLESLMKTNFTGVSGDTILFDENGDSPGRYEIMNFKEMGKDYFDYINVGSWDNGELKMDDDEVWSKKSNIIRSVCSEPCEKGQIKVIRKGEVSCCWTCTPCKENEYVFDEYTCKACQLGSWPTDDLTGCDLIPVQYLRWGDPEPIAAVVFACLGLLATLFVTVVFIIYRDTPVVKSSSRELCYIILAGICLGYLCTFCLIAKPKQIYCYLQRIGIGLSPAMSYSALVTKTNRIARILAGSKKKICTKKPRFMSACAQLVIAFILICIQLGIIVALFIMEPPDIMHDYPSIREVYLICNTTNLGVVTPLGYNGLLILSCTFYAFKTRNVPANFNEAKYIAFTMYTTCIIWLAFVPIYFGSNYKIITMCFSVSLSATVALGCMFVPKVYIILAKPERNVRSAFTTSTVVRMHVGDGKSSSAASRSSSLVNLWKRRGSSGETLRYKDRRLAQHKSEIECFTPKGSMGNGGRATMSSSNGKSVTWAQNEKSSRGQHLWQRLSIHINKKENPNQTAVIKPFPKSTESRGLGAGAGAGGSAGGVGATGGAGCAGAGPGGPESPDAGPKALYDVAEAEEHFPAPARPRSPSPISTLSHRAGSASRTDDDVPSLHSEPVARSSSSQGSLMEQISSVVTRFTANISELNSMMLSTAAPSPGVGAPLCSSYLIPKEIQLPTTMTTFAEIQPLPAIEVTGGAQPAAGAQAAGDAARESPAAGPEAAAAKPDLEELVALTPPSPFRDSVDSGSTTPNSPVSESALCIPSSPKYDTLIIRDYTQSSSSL
- experiment.notes: Positive allosteric modulation of human mGluR5
pEC50: −log10 of the molar value.
Quick reference for pEC50 among some compounds
endpoint.name: pEC50

| test.smiles | recorded.measurement |
| --- | --- |
| CC(C)NC(=O)c1ccc(C#Cc2ccncc2)cn1 | 7.48 |
| CC(C)(C)c1nnc2n1CC[C@H](c1nc(-c3ccc(F)cc3)no1)C2 | 7.28 |

----------
- assay.system: Metabotropic glutamate receptor 5 (Rattus norvegicus)
- Sequence (P31424 whole entry): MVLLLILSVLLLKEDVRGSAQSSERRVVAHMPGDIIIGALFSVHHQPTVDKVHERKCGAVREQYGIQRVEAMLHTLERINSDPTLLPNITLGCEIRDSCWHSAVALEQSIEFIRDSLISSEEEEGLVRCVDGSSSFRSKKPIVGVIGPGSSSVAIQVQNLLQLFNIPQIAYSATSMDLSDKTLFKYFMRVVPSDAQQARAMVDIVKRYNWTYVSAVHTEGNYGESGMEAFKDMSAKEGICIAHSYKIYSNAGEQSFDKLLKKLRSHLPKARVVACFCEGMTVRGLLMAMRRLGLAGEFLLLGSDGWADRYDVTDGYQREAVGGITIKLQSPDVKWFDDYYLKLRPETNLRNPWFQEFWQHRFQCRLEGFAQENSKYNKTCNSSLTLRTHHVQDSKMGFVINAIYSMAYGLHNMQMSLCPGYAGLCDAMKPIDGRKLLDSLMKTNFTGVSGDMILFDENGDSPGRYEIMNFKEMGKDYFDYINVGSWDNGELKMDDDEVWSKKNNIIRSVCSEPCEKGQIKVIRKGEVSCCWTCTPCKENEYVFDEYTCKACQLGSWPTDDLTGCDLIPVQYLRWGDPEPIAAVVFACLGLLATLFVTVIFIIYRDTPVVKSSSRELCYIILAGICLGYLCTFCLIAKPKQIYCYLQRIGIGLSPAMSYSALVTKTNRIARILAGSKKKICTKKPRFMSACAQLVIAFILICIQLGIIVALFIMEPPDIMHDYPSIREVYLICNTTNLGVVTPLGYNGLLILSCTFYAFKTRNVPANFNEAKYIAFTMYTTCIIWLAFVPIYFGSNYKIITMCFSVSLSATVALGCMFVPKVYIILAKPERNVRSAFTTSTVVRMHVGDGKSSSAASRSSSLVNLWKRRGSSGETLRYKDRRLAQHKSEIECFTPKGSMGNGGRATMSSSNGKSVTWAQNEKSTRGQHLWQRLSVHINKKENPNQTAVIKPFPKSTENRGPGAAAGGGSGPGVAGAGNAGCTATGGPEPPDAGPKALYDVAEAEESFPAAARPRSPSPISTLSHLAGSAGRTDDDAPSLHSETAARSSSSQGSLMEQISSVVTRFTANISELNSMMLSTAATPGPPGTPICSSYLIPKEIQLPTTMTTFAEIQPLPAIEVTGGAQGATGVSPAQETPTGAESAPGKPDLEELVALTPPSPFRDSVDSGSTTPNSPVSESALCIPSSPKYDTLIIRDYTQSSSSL
- experiment.notes: Positive allosteric modulation of rat mGluR5 stably expressed in HEK293 cells assessed as increase in intracellular calcium level by Fluo-4AM dye-based fluorescence assay
- Assay type: functional, cell-based
- setup.conditions: read-out: EC50
pEC50: −log10 of the molar value.

| test.smiles | pEC50 |
| --- | --- |
| CC1(CNC(=O)c2ccc(C#Cc3cccc(F)c3)cn2)COC1 | 7.97 |
| O=C(NCC1CC1)c1ccc(C#Cc2cccc(F)c2)cn1 | 7.44 |
| CC(C)(C)NC(=O)c1ccc(C#Cc2cccc(F)c2)cn1 | 8.59 |
| C[C@@H](NC(=O)c1ccc(C#Cc2cc(F)cc(F)c2)cn1)C(C)(C)O | 7.24 |
| C[C@@H](NC(=O)c1cnc(C#Cc2cccc(F)c2)cn1)C(C)(C)O | 7.90 |
| CCCNC(=O)c1ccc(C#Cc2cccc(F)c2)cn1 | 7.46 |
| CC(C)(O)CNC(=O)c1ccc(C#Cc2cccc(F)c2)cn1 | 7.46 |
| CC1(CCNC(=O)c2ccc(C#Cc3cccc(F)c3)cn2)COC1 | 7.33 |
| Cc1cccc(C#Cc2ccc(C(=O)N[C@H](C)C(C)(C)O)nc2)c1 | 8.19 |
| C[C@@H](NC(=O)c1ccc(C#Cc2cccc(F)c2)cc1)C(C)(C)O | 8.12 |
| Cc1nc(C#Cc2ccc(C(=O)N[C@H](C)C(C)(C)O)nc2)cs1 | 7.23 |
| C[C@@H](NC(=O)c1ccc(C#CC2CCCC2)cn1)C(C)(C)O | 7.03 |
| O=C(NCC1CCC1)c1ccc(C#Cc2cccc(F)c2)cn1 | 7.08 |
| C[C@H](NC(=O)c1ccc(C#Cc2cccc(F)c2)cn1)C(F)(F)F | 7.66 |
| C[C@@H](NC(=O)c1ccc(C#CC2CC2)cn1)C(C)(C)O | 5.89 |
| C[C@@H](NC(=O)c1ccc(C#Cc2ccc(F)cc2)cn1)C(C)(C)O | 7.91 |
| C[C@@H](NC(=O)c1ccc(C#Cc2ccccc2)cn1)C(C)(C)O | 8.39 |
| C[C@@H](NC(=O)c1ccc(C#Cc2ccc(F)cc2F)cn1)C(C)(C)O | 7.58 |
| C[C@@H](NC(=O)c1ccc(C#Cc2ccccc2F)cn1)C(C)(C)O | 8.10 |
| CC(C)[C@H](C)NC(=O)c1ccc(C#Cc2cccc(F)c2)cn1 | 7.69 |
| Cc1ccc(C#Cc2ccc(C(=O)N[C@H](C)C(C)(C)O)nc2)cc1 | 6.97 |
| C[C@@H](NC(=O)c1ccc(C#Cc2ncccc2F)cn1)C(C)(C)O | 7.47 |
| C[C@@H](NC(=O)c1ccc(C#Cc2cccc(F)c2)cn1)C(F)(F)F | 7.68 |
| Cc1nc(C#Cc2cccc(F)c2)ccc1C(=O)N[C@H](C)C(C)(C)O | 7.77 |
| CC(C)(O)CCNC(=O)c1ccc(C#Cc2cccc(F)c2)cn1 | 6.87 |
